target: SHP2 (Homo sapiens (Human), UniProt Q06124); test: SHP2 Biochemical Assay (DiFMUP conversion, pIRS1-activated); details: Table 19; head prints unit as "-M"
Sequence (Q06124 whole entry): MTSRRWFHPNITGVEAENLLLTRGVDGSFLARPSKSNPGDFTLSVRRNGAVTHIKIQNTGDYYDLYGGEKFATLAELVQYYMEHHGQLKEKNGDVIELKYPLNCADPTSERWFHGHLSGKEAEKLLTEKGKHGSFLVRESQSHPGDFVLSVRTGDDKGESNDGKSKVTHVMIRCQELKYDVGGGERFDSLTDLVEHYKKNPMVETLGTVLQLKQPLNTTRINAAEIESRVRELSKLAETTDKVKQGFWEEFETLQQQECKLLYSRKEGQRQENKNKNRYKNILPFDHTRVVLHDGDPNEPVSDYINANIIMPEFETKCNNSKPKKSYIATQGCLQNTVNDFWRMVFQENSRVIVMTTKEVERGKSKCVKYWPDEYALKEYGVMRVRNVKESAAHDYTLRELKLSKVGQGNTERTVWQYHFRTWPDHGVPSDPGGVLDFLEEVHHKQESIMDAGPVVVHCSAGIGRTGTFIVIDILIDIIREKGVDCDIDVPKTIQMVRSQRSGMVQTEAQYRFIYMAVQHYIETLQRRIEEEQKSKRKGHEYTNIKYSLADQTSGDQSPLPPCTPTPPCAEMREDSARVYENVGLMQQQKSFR
Counter-ions that a name gives are not always drawn.
I'd appreciate it if you could supply IC50 values for the items below.
Express the result in nM but write the number alone.

IN: IC50 for Cn1cc2c(Cl)c(-c3c[nH]c4nc(N5C6COCC5CC(N)C6)n(C)c(=O)c34)ccc2n1 (centres unmarked) ?
OUT: 14

IN: IC50 for C[C@@H]1OCC2(CCN(c3nc4[nH]nc(-c5ccc6nn(C)c(Cl)c6c5Cl)c4c(=O)n3C)CC2)[C@@H]1N [Example 147, hydrochloride salt] ?
OUT: 12

IN: IC50 for Cc1nc2ccc(-c3c[nH]c4nc(N5[C@@H]6CC[C@H]5C[C@@H](N)C6)n(C)c(=O)c34)c(Cl)c2s1 ?
OUT: 9

IN: IC50 for CCn1cc2c(Cl)c(-c3c[nH]c4nc(N5CCC(C)(N)CC5)n(C)c(=O)c34)ccc2n1 ?
OUT: 15

IN: IC50 for Cn1cc2c(Cl)c(-c3c[nH]c4nc(N5C6CNCC5COC6)n(C)c(=O)c34)ccc2n1 ?
OUT: 13

IN: IC50 for CCn1nc2ccc(-c3c[nH]c4nc(N5[C@H]6CC[C@@H]5[C@H](N)C6)n(C)c(=O)c34)c(Cl)c2c1C(F)F ?
OUT: 6.5

IN: IC50 for Cn1cc2c(Cl)c(-c3c[nH]c4nc(N5[C@@H]6CCC[C@H]5C[C@@H](N)C6)n(C)c(=O)c34)ccc2n1 ?
OUT: 12

IN: IC50 for CCn1cc2c(Cl)c(-c3c[nH]c4nc(N5[C@@H]6CC[C@H]5C[C@H](N)C6)n(C)c(=O)c34)ccc2n1 ?
OUT: 7.5

###

biological target: SHP2 (Homo sapiens (Human)); assay: SHP2 Biochemical Assay (DiFMUP conversion, pIRS1-activated); details: Table 19; head prints unit as "-M"
pIC50: −log10 of the molar value.
Class class 1: pIC50 at least 8. Class class 0: pIC50 below 8.

IN: Decide: is the reported value of pIC50 for C[C@H]1CN(c2nc3[nH]cc(-c4ccc5nn(C)cc5c4Cl)c3c(=O)n2C)C[C@@H]1N equal to or greater than 8?
OUT: class 0

IN: Decide: is the reported value of pIC50 for Cn1cc2c(Cl)c(-c3n[nH]c4nc(N5CC6COCC(C5)N6)n(C)c(=O)c34)ccc2n1 equal to or greater than 8?
OUT: class 0

IN: Decide: is the reported value of pIC50 for Cc1nc2ccc(-c3c[nH]c4nc(N5[C@@H]6CC[C@H]5C[C@@H](N)C6)n(C)c(=O)c34)c(Cl)c2o1 equal to or greater than 8?
OUT: class 0

IN: Decide: is the reported value of pIC50 for CCn1nc2ccc(-c3n[nH]c4nc(N5[C@H]6CC[C@@H]5[C@H](N)C6)n(C)c(=O)c34)c(Cl)c2c1Cl equal to or greater than 8?
OUT: class 1

IN: Decide: is the reported value of pIC50 for CCn1nc2ccc(-c3c[nH]c4nc(N5[C@H]6CC[C@@H]5[C@H](N)C6)n(C)c(=O)c34)c(Cl)c2c1C#N equal to or greater than 8?
OUT: class 1

IN: Decide: is the reported value of pIC50 for Cn1cc2c(Cl)c(-c3c[nH]c4nc(N5C[C@H]6CC[C@@H](C5)[C@@H]6N)n(C)c(=O)c34)ccc2n1 equal to or greater than 8?
OUT: class 0

IN: Decide: is the reported value of pIC50 for Cn1cc2c(Cl)c(-c3c[nH]c4nc(N5[C@@H]6CCC[C@H]5C[C@H](N)C6)n(C)c(=O)c34)ccc2n1 equal to or greater than 8?
OUT: class 1

IN: Decide: is the reported value of pIC50 for COc1c(-c2c[nH]c3nc(N4C5CCC4CC(N)C5)n(C)c(=O)c23)ccc2nn(C)cc12 (stereo not drawn) equal to or greater than 8?
OUT: class 0

IN: Decide: is the reported value of pIC50 for Cn1cc2c(Cl)c(-c3c[nH]c4nc(N5CC6CC6(N)C5)n(C)c(=O)c34)ccc2n1 (stereo not drawn) equal to or greater than 8?
OUT: class 0

IN: Decide: is the reported value of pIC50 for Cn1cc2c(Cl)c(-c3n[nH]c4nc(N5CCC6(CC5)C[C@H](O)C[C@H]6N)n(C)c(=O)c34)ccc2n1 equal to or greater than 8?
OUT: class 0

IN: Decide: is the reported value of pIC50 for CN[C@@H]1C[C@@H]2CC[C@H]1N2c1nc2[nH]cc(-c3ccc4nn(C)c(Cl)c4c3Cl)c2c(=O)n1C equal to or greater than 8?
OUT: class 1
